Data origin, for the record: paper PMC6770089

Below, each of the compounds is paired with its reported IC50 value.
target: α-glucosidase; construct: gene MAL12; docking used PDB 3A4A (isomaltase IMA1), not the tested protein; assay: pNP-G hydrolysis, absorbance […] nm; format: biochemical, Saccharomyces cerevisiae; conditions: pNP-G (1 mM stock, 1 mL added), 0.1 M phosphate pH 6.8, 37 °C, 10 min preincubation
Respond with the bare value in µg/mL.

Example cases with answers are listed next.
[[record]]
compound = "COc1ccc([C@@H]2CC(=O)c3c(O)cc(O)cc3O2)cc1O"
endpoint = "IC50"
u = "µg/mL"
recorded_value = 286.60

[[record]]
compound = "O=c1cc(-c2ccccc2)oc2cc(O)cc(O)c12"
endpoint = "IC50"
u = "µg/mL"
recorded_value = 70.07

[[record]]
compound = "O=c1cc(-c2ccc(O)c(O)c2)oc2cc(O)cc(O)c12"
endpoint = "IC50"
u = "µg/mL"
recorded_value = 27.22

[[record]]
compound = "O=C1c2c(O)cc(O)cc2O[C@H](c2cc(O)c(O)c(O)c2)[C@H]1O [compound 8, dihydromyricetin]"
endpoint = "IC50"
u = "µg/mL"
recorded_value = 85.95

[[record]]
compound = "O=c1c(O)c(-c2ccc(O)c(O)c2)oc2cc(O)ccc12"
endpoint = "IC50"
u = "µg/mL"
recorded_value = 5.50

[[record]]
compound = "O=c1cc(-c2ccccc2)oc2cc(O)c(O)c(O)c12"
endpoint = "IC50"
u = "µg/mL"
recorded_value = 6.75


I'm curious: which IC50 was measured for O=C(/C=C/c1ccccc1)c1ccc(O)cc1 [compound 10, 4′-hydroxychalcone] tested on α-glucosidase?
199.10

Report IC50 for O=c1c(O)c(-c2cc(O)c(O)c(O)c2)oc2cc(O)cc(O)c12 tested on α-glucosidase.
2.09

What measured IC50 is associated with O=C(/C=C/c1ccc(O)cc1)c1ccc(O)cc1O on α-glucosidase?
36.29

Under α-glucosidase: IC50 value of O=C(/C=C/c1ccc(O)cc1)c1ccccc1 [compound 9, 4-hydroxychalcone] ?
123.04

---

target: α-glucosidase; construct: gene MAL12; docking used PDB 3A4A (isomaltase IMA1), not the tested protein; test: pNP-G hydrolysis, absorbance […] nm; assay type: biochemical, Saccharomyces cerevisiae; settings: pNP-G (1 mM stock, 1 mL added), 0.1 M phosphate pH 6.8, 37 °C, 10 min preincubation
Below is a list of entries, each paired with its recorded IC50 value.

# annotated cases, reported IC50 shown
[[record]]
item_smiles = "C[C@@H]1O[C@@H](O[C@H]2[C@H](Oc3cc(O)c4c(c3)O[C@H](c3ccc(O)cc3)CC4=O)O[C@H](CO)[C@@H](O)[C@@H]2O)[C@H](O)[C@H](O)[C@H]1O"
tested_target = "α-glucosidase"
recorded_value = "> 500 µg/mL"

[[record]]
item_smiles = "O=C(O)[C@H]1O[C@@H](Oc2cc3oc(-c4ccccc4)cc(=O)c3c(O)c2O)[C@H](O)[C@@H](O)[C@@H]1O"
tested_target = "α-glucosidase"
recorded_value = "> 500 µg/mL"


Here is the next item to consider.
Given the compound COc1ccc([C@@H]2CC(=O)c3c(O)cc(O[C@@H]4O[C@H](CO[C@@H]5O[C@@H](C)[C@H](O)[C@@H](O)[C@H]5O)[C@@H](O)[C@H](O)[C@H]4O)cc3O2)cc1O , what is its reported IC50?
> 500 µg/mL
